B1: ZER1 (parent)
chain: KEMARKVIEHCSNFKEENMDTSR

variants of: B1; experiment: protein stability index of a GFP-peptide fusion (GPS, HEK-293T) (PSI 1-6); higher = more stable; conditions: c terminus: native;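 also: lentivirally expressed fusions sorted by FACS into six bins by GFP to DsRed ratio, PSI derived from sequencing read proportions per bin multiplied by bin number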
Can you tell me protein stability index for the items I'm about to list?
Enter the number alone.

Lookup: Please look at this variant and report its protein stability index: `K1R`
Found: 4.31

Lookup: Could you please provide reported protein stability index for `R23E` ? Thanks!
Found: 5.48

Lookup: Supply reported protein stability index belonging to this variant: `F14Q`
Found: 4.73

Lookup: Tell us which protein stability index value is on record for `V7K`
Found: 4.88

Lookup: Give me measured protein stability index, please, for this variant: `F14D`
Found: 5.02

Lookup: Fill in reported protein stability index for this entry: `N18C`
Found: 3.3

Lookup: Answer with reported protein stability index of `K6P`
Found: 4.47

Lookup: Write down protein stability index measured for item `I8V`
Found: 4.35

Lookup: Read off the recorded protein stability index for `N18M`
Found: 3.54

Lookup: Identify measured protein stability index corresponding to `E2A`
Found: 3.23

Lookup: Provide one value: measured protein stability index of `I8S`
Found: 3.92

Lookup: Hello, please tell me recorded protein stability index for this one: `R23I`
Found: 4.9

Lookup: Item `R5K` : provide protein stability index
Found: 4.15

Lookup: Using known records, supply protein stability index for `I8F`
Found: 3.2

Lookup: Using known records, supply protein stability index for `F14M`
Found: 4.4

Lookup: Please look at this variant and report its protein stability index: `I8H`
Found: 4.29

Lookup: Note down protein stability index recorded for `S12V`
Found: 2.96

Lookup: For `I8R` , write its protein stability index.
Found: 4.33

Lookup: Write down protein stability index measured for item `E2Q`
Found: 3.53

Lookup: Specify reported protein stability index for the variant shown: `S12M`
Found: 2.54

Lookup: # return recorded protein stability index for input `A4E`
Found: 4.39

Lookup: Answer with reported protein stability index of `S12F`
Found: 2.77

Lookup: Recall and state the measured protein stability index for `C11G` .
Found: 4.63

Lookup: // fetch protein stability index given entry `M19V`
Found: 3.77

Lookup: Fill in reported protein stability index for this entry: `N13K`
Found: 3.85

Lookup: Return protein stability index for the following variant: `E17M`
Found: 3.51

Lookup: Return value of protein stability index for input `A4D` , no commentary.
Found: 4.48

Lookup: Provide only the value of recorded protein stability index for `N18R`
Found: 2

Lookup: Provide protein stability index value for the following variant: `T21F`
Found: 3.84

Lookup: Fill in protein stability index for record `C11P`
Found: 4.83

Lookup: Fill in protein stability index for record `F14W`
Found: 3.33

Lookup: Hello, please tell me recorded protein stability index for this one: `S22E`
Found: 3.74

Lookup: Give a short answer stating reported protein stability index for `N18W` .
Found: 3.6

Lookup: In one line, give reported protein stability index of the entry `E2I` .
Found: 3.27

Lookup: Note down protein stability index recorded for `K1C`
Found: 2.6

Lookup: Using the record for `N18P` , state its measured protein stability index.
Found: 3.9

Lookup: Note protein stability index for the variant shown: `R23Y`
Found: 4.54

Lookup: Check the records and state protein stability index for `N18V`
Found: 3.46

Lookup: Look up and state reported protein stability index for `K15N`
Found: 3.64

Lookup: Report protein stability index for `E17W`
Found: 2.2

Lookup: Indicate the recorded protein stability index value for this variant: `T21D`
Found: 5.16

Lookup: Fill in reported protein stability index for this entry: `N18T`
Found: 3.45

Lookup: Write down protein stability index measured for item `E17H`
Found: 2.83

Lookup: Return protein stability index (reported value) for this variant: `E16Q`
Found: 3.14

Lookup: Supply protein stability index value. Item: `M3L`
Found: 3.52

Lookup: Name the recorded protein stability index of the item `D20C` in your answer.
Found: 2.08
